The origin of these recorded values is ChEMBL document CHEMBL1201862.

# Tested on: SNB-78
# Measurement Notes: NCI tumour cell line growth inhibition, 48 h
Active and inactive are the calls of the source. Rule as the data show it: active = GI50 up to about 1.1 µM and inactive = higher.
Respond using exactly one of the listed classes: active, inactive

- Molecule: "CCOC(=O)Oc1c(OC)cc(C(=O)NC2CCc3cc(OC)c(OC)c(OC)c3-c3ccc(SC)c(=O)cc32)cc1OC (configuration not stated)"
  Group Label: "active"

Query: // return assay outcome for "CCCCCCCCCCCCCC/C(C(=O)OC)=C(/O)C(=O)OCC"
Reply: inactive

Query: Call for entry CC1CCN(CCC(=O)CC(c2ccccc2)c2c(O)c3ccccc3oc2=O)CC1 (configuration not stated) :
Reply: inactive

Query: Hi, do you know how "CC(C)c1cccc2sc(NC(=O)C(=O)CC(=O)c3ccc(F)cc3)nc12" came out in this test?
Reply: inactive

Query: Which result was noted for this molecule in the test: COc1ccc(-c2nc(SC)n(C3OC(COC(C)=O)C(OC(C)=O)C(OC(C)=O)C3OC(C)=O)c(=O)c2C#N)cc1 (configuration not stated)
Reply: inactive

Query: Name the outcome recorded for CC(=O)O[C@H]1CCC(C)=CCC[C@@]2(C)C(CC[C@@H]2[C@@H](C)/C=C/C(C)C)c2ccc(cc2C(=O)O)C1 (some centres not stated) in the assay.
Reply: inactive

Query: Please indicate how the test categorized C=C(C=O)[C@@H]1C2OC(=O)C(=C)[C@@H]2CC(O)[C@@]1(C)CC (some centres not stated) .
Reply: inactive

* * *

# Test system: TK-10
# Measurement Notes: NCI tumour cell line growth inhibition, 48 h
Active and inactive are the calls of the source. Cut-off read from the data, not from the text of the source: active = GI50 up to about 1.1 µM and inactive = higher.
Readout Type: GI50

- Molecule: "O=C1c2ccccc2C(=O)c2c1cc(S(=O)(=O)O)c(O)c2O [Alizarin Red S]"
  Test System: "TK-10"
  Value Reported: "> 100 µM (inactive)"
- Molecule: "COc1ccc(OC)c(C(=O)c2cccc(C(=O)c3cc(OC)ccc3OC)n2)c1"
  Test System: "TK-10"
  Value Reported: "35.5 µM (inactive)"

Query: What GI50 value was documented for this molecule, "CN(C)c1ccc(/C=N/N=C2\C(=O)Nc3c(Cl)cc(Cl)cc32)cc1" ?
Reply: 94.8 µM (inactive)

* * *

# Tested on: SNB-19
# Measurement Notes: NCI tumour cell line growth inhibition, 48 h
Active and inactive are the calls of the source. Cut-off read from the data, not from the text of the source: active = GI50 up to about 1.1 µM and inactive = higher.
Readout Type: GI50

Please review the following examples before continuing.
- Molecule: "O=C1OC(c2ccccc2)(c2ccccc2)c2ccc3ccc(F)cc3c21"
  GI50: "> 100 µM (inactive)"
- Molecule: "O=C1C(=O)C(CCCO)(CCCO)CCCCCCCCC1(CCCO)CCCO"
  GI50: "61.5 µM (inactive)"
- Molecule: "Cc1cc(C)c(C2[C@H]3C(=O)N(c4ccc(Cc5ccc(N6C(=O)[C@@H]7ON(c8ccccc8)C(c8c(C)cc(C)cc8C)[C@@H]7C6=O)cc5)cc4)C(=O)[C@H]3ON2c2ccccc2)c(C)c1 (stereo partly specified)"
  GI50: "> 100 µM (inactive)"
- Molecule: "O=C1C=C(C2=CC(=O)C(=O)c3ccccc32)c2ccccc2C1=O"
  GI50: "29.7 µM (inactive)"
- Molecule: "CC(C)c1cccc(=O)c(O)c1"
  GI50: "10.9 µM (inactive)"
- Molecule: "CC(C)(C)c1cc(C(C)(C)C)c(P=C(Cl)Cl)c(C(C)(C)C)c1 (stereo unspecified)"
  GI50: "> 100 µM (inactive)"
- Molecule: "CN(O)C(=O)c1ccccc1"
  GI50: "> 100 µM (inactive)"
- Molecule: "CCN(CC)CCNc1ccc2nnn3c4ccc(OC(C)=O)cc4c(=O)c1c23"
  GI50: "> 20.3 µM (inactive)"
- Molecule: "CC(Oc1ccc(OCC2CCCCC2)cc1)C(=O)N(CCO)CCO (stereo unspecified)"
  GI50: "> 100 µM (inactive)"
- Molecule: "COc1ccc(OC)c2c1ccc1c(C)c3ccccc3c(C)c12"
  GI50: "> 100 µM (inactive)"

Query: // returns reported GI50 for input "Cc1cc(N(C)C)ccc1/N=N/c1ccc2ncccc2c1"
Reply: 28.9 µM (inactive)

Query: Given the entry "CCC(=O)NCCc1c2c3c(ccnc3c3ncsc13)-c1ccccc1N2" , report its measured GI50.
Reply: 4.36 µM (inactive)

Query: Requested read-out: GI50. Entry: "Cc1cn(CC2=NCCCN2)c(=O)[nH]c1=O"
Reply: > 100 µM (inactive)

Query: For the molecule "COc1cc(C)c(O)c(C(=O)O)c1" , what GI50 is on record?
Reply: > 100 µM (inactive)

Query: Given the molecule "O=S1(=O)C(c2ccccc2)=C(O)c2ccccc21" , what is its reported GI50?
Reply: > 100 µM (inactive)

* * *

Measured GI50, listed per entry.
# Test system: HOP-92
# Measurement Notes: NCI tumour cell line growth inhibition, 48 h
Activity calls are given as the source filed them. Cut-off read from the data, not from the text of the source: active = GI50 up to about 1.1 µM and inactive = higher.

These recorded examples may help you get a feel for the data.
- Compound: "C[C@]1(CO)CCC[C@@]2(C)C1CC[C@H]1CC3C[C@]12CC[C@]3(C)O (stereo partly drawn)"
  GI50: "> 100 µM (inactive)"
- Compound: "N#C/C(=C\\c1ccc(F)cc1)c1nc(-c2cc3ccccc3oc2=O)cs1"
  GI50: "10.3 µM (inactive)"

# next compound below
Query: GI50 of Cc1c(C)n(-c2ccccc2)c2nc([S+](C)[O-])nc([S+](C)[O-])c12 (stereo not drawn) on HOP-92?
Reply: 1.96 µM (inactive)

* * *

# Test system: SK-MEL-5
# Measurement Notes: NCI tumour cell line growth inhibition, 48 h
The source made the active and inactive calls. Cut-off read from the data, not from the text of the source: active = GI50 up to about 1.1 µM and inactive = higher.
Readout Type: GI50

The cases that follow already have their GI50 on record.
- Compound: "CC1=C(C(=O)NCc2ccccc2)C(c2ccc(C3C(C(=O)NCc4ccccc4)=C(C)NC(C)=C3C(=O)NCc3ccccc3)cc2)C(C(=O)NCc2ccccc2)=C(C)N1"
  GI50: "16.1 µM (inactive)"
- Compound: "N#CC(c1ccccc1)(c1ccccc1)[C@@H](c1ccccc1)[C@H](Cc1ccccc1)NS(=O)(=O)c1ccccc1"
  GI50: "96.2 µM (inactive)"
- Compound: "COC(=O)C(C(=O)OC)C1CCCC(=O)C1 (centres undefined)"
  GI50: "> 100 µM (inactive)"
- Compound: "CC(C)(C)OC(=O)NCC(=O)NC1CC=CCC1NC(=O)CNC(=O)OC(C)(C)C (centres undefined)"
  GI50: "> 100 µM (inactive)"
- Compound: "CCN(CC)CCC1CC/C(=C\\c2ccc(OC)cc2)C1=O (centres undefined)"
  GI50: "23.6 µM (inactive)"

Query: Look up GI50 for this compound: CC1CCN(CCC(=O)CC(c2ccccc2)c2c(O)c3ccccc3oc2=O)CC1 (centres undefined)
Reply: > 100 µM (inactive)

Query: I am curious: what GI50 value has been reported for "Cc1ccsc1/C=N/Nc1cc(C)c2ccccc2n1" ?
Reply: 2.17 µM (inactive)

Query: GET /values?readout=GI50&item= COc1ccc(C2c3cc4c(cc3OC(N3CCOCC3)C2C)OCO4)cc1 (centres undefined)
Reply: 22.6 µM (inactive)

Query: Any idea what its GI50 is? The compound is COc1cc2oc3cc(=O)cc4oc(-c5ccccc5)cc(c2c2c1CCC(c1ccccc1)O2)c43 (centres undefined)
Reply: 20.4 µM (inactive)

Query: GET /values?readout=GI50&item= CCOc1ccc2nc(NC(=O)C(=O)C(C(=O)c3ccccc3-c3ccccc3)C3OC(=O)c4ccccc43)sc2c1 (centres undefined)
Reply: 16.2 µM (inactive)

Query: Reported GI50 for "Cc1cc(C)c(S(=O)(=O)N(CCCN)OCCCN)c(C)c1" : what is it?
Reply: > 100 µM (inactive)

Query: What measured GI50 goes with "OCCN1CCN(CC/C=C2/c3ccccc3Sc3ccc(Cl)cc32)CC1" ?
Reply: 5.89 µM (inactive)

Query: Endpoint output: GI50 of C[C@]1(CO)CCC[C@@]2(C)C1CC[C@H]1CC3C[C@]12CC[C@]3(C)O (some centres undefined) . Value?
Reply: 17.9 µM (inactive)

Query: So what's the measured GI50 for this one? "Clc1ccc(C[P+](c2ccccc2)(c2ccccc2)c2ccccc2)cc1Cl"
Reply: 1.42 µM (inactive)

* * *

# Test system: SW-620
# Measurement Notes: NCI tumour cell line growth inhibition, 48 h
Calls of active or inactive are those of the source. Rule as the data show it: active = GI50 up to about 1.1 µM and inactive = higher.
Readout Type: GI50

- Compound: "O=C1NC2C(CCO)CC=C[C@H]2c2cc3c(cc21)OCO3 (some centres not stated)"
  Test System: "SW-620"
  GI50: "> 100 µM (inactive)"
- Compound: "NC(Cc1ncccn1)C(=O)O (configuration not stated)"
  Test System: "SW-620"
  GI50: "> 100 µM (inactive)"
- Compound: "O=C1c2ccccc2C(=O)N1CCCOCc1cnc(O)nc1O"
  Test System: "SW-620"
  GI50: "> 100 µM (inactive)"
- Compound: "CNCCN[C@@H]1c2cc3c(cc2[C@@H](c2cc(OC)c(O)c(OC)c2)[C@H]2C(=O)OC[C@@H]21)OCO3"
  Test System: "SW-620"
  GI50: "0.269 µM (active)"
- Compound: "CN(C)c1ccc(C(N)=O)cn1"
  Test System: "SW-620"
  GI50: "> 100 µM (inactive)"
- Compound: "CCCCCC/C=C\\CCCCCCCCCc1c(O)c(OC)cc(O)c1CN(C)C"
  Test System: "SW-620"
  GI50: "2.93 µM (inactive)"
- Compound: "Cc1cc(/N=C/c2ccc(C#N)cc2)n(-c2ccccc2)n1"
  Test System: "SW-620"
  GI50: "49.4 µM (inactive)"
- Compound: "COc1ccc(C(CC(C)=O)c2c(O)c3ccccc3oc2=O)cc1OC (configuration not stated)"
  Test System: "SW-620"
  GI50: "> 100 µM (inactive)"

Query: Which measured GI50 value corresponds to "COc1ccc(/C=C/C=C2C(=O)NC(=S)NC2=O)cc1" ?
Reply: 1.78 µM (inactive)

Query: Entry under review: "COc1cc(NS(C)(=O)=O)ccc1NCc1c[nH]c2ccc3nc(C)ccc3c12" . Reported GI50?
Reply: 30.2 µM (inactive)

Query: // query GI50 value for entry O=C(Oc1ccc(OC(Oc2ccccc2)c2ccccc2)cc1)c1ccccc1 (configuration not stated)
Reply: > 31.6 µM (inactive)

Query: Item under review: NC1=NCCC1(c1ccccc1)c1ccccn1 (configuration not stated) . Reported GI50?
Reply: > 100 µM (inactive)

Query: Query (compound): "C=C[C@@]1(O)CCCC2=C(C(=O)OCC)CC[C@]21C" ; field requested: GI50
Reply: 54.7 µM (inactive)

Query: Suppose we examine the compound "Cc1cn(CC2=NCCCN2)c(=O)[nH]c1=O" ; what GI50 value has been reported?
Reply: > 100 µM (inactive)

Query: Name the recorded GI50 for "CN(O)C(=O)c1ccccc1" .
Reply: > 100 µM (inactive)

Query: Quick one: GI50 for "Nc1[nH]c(Nc2ccc(Cl)c(Cl)c2)nc2ncnc1-2" ?
Reply: 18.1 µM (inactive)

Query: What does the data say about its GI50? Entry: COC(=O)C(C(=O)OC)C1CCCC(=O)C1 (configuration not stated)
Reply: > 100 µM (inactive)

Query: Endpoint output: GI50 of Cc1cc(C)c(C2[C@H]3C(=O)N(c4ccc(Cc5ccc(N6C(=O)[C@@H]7ON(c8ccccc8)C(c8c(C)cc(C)cc8C)[C@@H]7C6=O)cc5)cc4)C(=O)[C@H]3ON2c2ccccc2)c(C)c1 (some centres not stated) . Value?
Reply: > 100 µM (inactive)

Query: Please give the measured GI50 for this compound: Cc1ccc(S(=O)(=O)OC2CC(C(C)(C)C)CCC2c2ccccc2)cc1 (configuration not stated)
Reply: > 100 µM (inactive)

Query: Can you look up the measured GI50 of CCCNC1=C2CC(C)CC(OC)[C@@H](O)[C@H](C)/C=C(\C)C(OC(N)=O)C(OC)/C=C\C=C(/C)C(=O)NC(=CC1=O)C2=O (some centres not stated) for me?
Reply: 0.0379 µM (active)

Query: Please report the recorded GI50 for "Nc1ncn2c(n1)nc1ccccc12" .
Reply: > 100 µM (inactive)

Query: What does the data say about its GI50? Entry: "O=c1ccn(Cc2ccccc2CCl)c(=O)[nH]1"
Reply: 35.5 µM (inactive)
